Test system: Beta-galactosidase (Escherichia coli), counter-screen for EBI2 antagonists
Assay: E. coli beta-galactosidase enzyme inhibition, confirmation, counter-screen for EBI2 antagonist project, biochemical, luminescence, single concentration (AID 652176);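 further: 0% = DMSO wells with enzyme and 100% = wells lacking enzyme; higher means stronger loss of beta-gal luminescence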
Settings: purified beta-galactosidase, luminescent Galacton Star, 15 min; at 5 µM; stronger effect = higher value
Hit rate of the full screen: of about 2,400 compounds, about 25 (1%) were called active. The list is a sample of the results.
I'd be grateful if you could share measured inhibition for these entries.
Give bare numbers, in %.

Example cases with answers are listed next.
[[record]]
molecule = "Cc1cs/c(=N\\N=C\\c2ccc(O)cc2)n1Cc1ccco1"
uom = "%"
endpoint_result = 10

[[record]]
molecule = "COc1ccc(OC)c(C(=O)c2coc3ccc(O)c(CN4CCOCC4)c23)c1"
uom = "%"
endpoint_result = 3.81


Respectfully, I request inhibition for each entry included below.
1. COc1ccc(CNC(=O)CN(c2ccc(OC)c(Cl)c2)S(=O)(=O)c2ccc(C)cc2)cc1
2. COc1cccc(-c2cc(C(=O)N3CCN(c4ccccc4OC)CC3)no2)c1
3. O=C(/C=C/c1ccc(Cl)cc1)N1CCN(c2ccccc2[N+](=O)[O-])CC1
4. Cc1ccc2oc(=O)c3cnn(CC(=O)N(Cc4ccco4)C4CCCCC4)c3c2c1
5. CCOc1ccc(CCN2C(=S)N([C@@H](CC(C)C)CN3CCC[C@@H]3CN3C(=S)NC[C@@H]3Cc3ccc(O)cc3)C[C@@H]2Cc2ccc(O)cc2)cc1
6. Cc1ccc2oc(=O)c3cnn(CC(=O)N4CCCCCC4)c3c2c1
7. CCN1CCN(C(=O)CSc2ccc(C)cc2)CC1
8. O=C(NCc1ccc(Cl)cc1)C1CCN(S(=O)(=O)c2cccs2)CC1

1. -10.2
2. 5.78
3. 3.83
4. -17.5
5. -18.9
6. 6.6
7. -12.6
8. 1.5

Respectfully, I request inhibition for each entry included below.
1. O=C(CCc1ccccc1)NNC(=O)COc1ccc(Cl)cc1
2. Cc1ccc(N2CC(C(=O)Nc3ccc(S(=O)(=O)N4CCCC4)cc3)CC2=O)cc1C (configuration not stated)
3. O=C(/C=C/c1cccc([N+](=O)[O-])c1)N1CCN(Cc2ccccc2)CC1
4. O=C(Nc1ccc(S(=O)(=O)N2CCCCC2)cc1)C1CC(=O)N(c2ccc(F)cc2)C1 (configuration not stated)
5. COc1ccc(/C=C/C(=O)c2ccc(OC)cc2O)cc1
6. N#CC(=C1CCCC1)c1nc(-c2ccc(Cl)cc2)cs1
7. COc1ccc2cc(C3=CC(=O)C[C@H](c4ccc5c(c4)OCO5)C3)ccc2c1
8. O=C(c1cc2cc(F)ccc2[nH]1)N1CCN(c2ccc(F)cc2)CC1

[4.21, 2.23, -5.48, 10.2, -7.89, -15.6, -16.2, 1.06]

Respectfully, I request inhibition for each entry included below.
1. COc1cc(/C=C(\C#N)C(=O)Nc2ccc3ccccc3c2)c([N+](=O)[O-])cc1OC
2. CN(Cc1ccc(F)cc1)C(=O)COc1ccc2ccccc2c1
3. COc1ccc(C(=O)/C=C/c2ccc(OC3CSC3)cc2)cc1
4. CCCCN=C1C([N+](=O)[O-])=CC=C2C1=NC1(CCCCC1)N2O
5. COc1ccc(NC(=O)N2CCC(Cc3ccccc3)CC2)cc1
6. Cc1cccc(-n2c(O)c(C=Nc3ccccc3N)c(=O)[nH]c2=O)c1
7. Cc1cccc(C)c1-n1nnnc1C(CCc1ccccc1)N1CCN(C/C=C/c2ccccc2)CC1 (configuration not stated)
8. Fc1ccc(N2CCN(Cc3cnc(Oc4ccc(Br)cc4)s3)CC2)cc1

-8.92
3.08
4.77
-14.2
-4.45
1.72
-14.6
3.88

* * *

Test system: Beta-galactosidase (Escherichia coli), counter-screen for EBI2 antagonists
Experiment: E. coli beta-galactosidase enzyme inhibition, confirmation, counter-screen for EBI2 antagonist project, biochemical, luminescence, single concentration (AID 652176);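 further: 0% = DMSO wells with enzyme and 100% = wells lacking enzyme; higher means stronger loss of beta-gal luminescence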
Settings: purified beta-galactosidase, luminescent Galacton Star, 15 min; at 5 µM; stronger effect = higher value
The campaign covered roughly 2,400 compounds. About 25 (1%) were called active. Not all results are given here.
measured metric: inhibition

Example cases with answers are listed next.
[[record]]
molecule = "O=C(CCNS(=O)(=O)c1ccccc1)NCCSc1ccc(Br)cc1"
target_entity = "Beta-galactosidase (Escherichia coli), counter-screen for EBI2 antagonists"
endpoint_result = "-8.38% (inactive)"

[[record]]
molecule = "Cc1cccc(NC(=O)CN2CCN(C(=O)C3CCN(C(=O)/C=C/c4ccccc4)CC3)CC2)c1C"
target_entity = "Beta-galactosidase (Escherichia coli), counter-screen for EBI2 antagonists"
endpoint_result = "-13.5% (inactive)"

[[record]]
molecule = "O=c1[nH]c(CN2CCN(S(=O)(=O)c3ccc4c(c3)OCCO4)CC2)nc2sc3c(c12)CCCC3"
target_entity = "Beta-galactosidase (Escherichia coli), counter-screen for EBI2 antagonists"
endpoint_result = "5.78% (inactive)"

[[record]]
molecule = "Cc1cc(OCC(=O)N2CCN(c3ncccn3)CC2)ccc1Cl"
target_entity = "Beta-galactosidase (Escherichia coli), counter-screen for EBI2 antagonists"
endpoint_result = "2.13% (inactive)"

[[record]]
molecule = "Cc1ccc(S(=O)(=O)N2CCN(CC(=O)N/N=C/c3ccc(Br)s3)CC2)cc1"
target_entity = "Beta-galactosidase (Escherichia coli), counter-screen for EBI2 antagonists"
endpoint_result = "3.3% (inactive)"

[[record]]
molecule = "O=C(NCCNc1ccc([N+](=O)[O-])cc1)c1cccc2c(Br)cccc12"
target_entity = "Beta-galactosidase (Escherichia coli), counter-screen for EBI2 antagonists"
endpoint_result = "3.17% (inactive)"


Respectfully, I request inhibition for each entry included below.
1. CCC1Nc2ncnc(N3CCN(c4ccccc4)CC3)c2N(Cc2ccc(Cl)cc2)C1=O (stereo unspecified)
2. COc1ccc(Nc2cc(Sc3ccc(OC)cc3)ncn2)cc1
3. O=C(CSc1ccccc1)Nc1cc(Cl)ccc1Oc1ccccc1
4. CCOc1ccc(CN(Cc2ccco2)S(=O)(=O)c2ccc(-n3cnnn3)c(OC)c2)cc1
5. O=C(C(c1ccccc1)c1ccccc1)N1CCN(CC(O)COc2ccccc2)CC1 (stereo unspecified)
6. O=C(c1cc2ccccc2s1)N1CCN(c2ccccn2)CC1
7. Cc1ccc(OCC(=O)N2CCN(S(=O)(=O)c3ccc(Cl)s3)CC2)cc1C

69% (active)
8.03% (inactive)
-9.14% (inactive)
4.57% (inactive)
-10% (inactive)
-19.7% (inactive)
0.1% (inactive)

Respectfully, I request inhibition for each entry included below.
1. c1ccc(C(c2ccccc2)N2CCN(Cc3nnnn3C3CCCCC3)CC2)cc1
2. O=C(NNC(=O)c1ccc2ccccc2c1)c1ccc(Cl)cc1
3. Cc1ccc(OCC(=O)N2CCN(C(=O)c3cccnc3)CC2)cc1

1. 9.44% (inactive)
2. 7.62% (inactive)
3. -9.4% (inactive)
